targetSystem: Melanin-concentrating hormone receptor 1 (Homo sapiens, UniProt Q99705)
Sequence (Q99705 whole entry): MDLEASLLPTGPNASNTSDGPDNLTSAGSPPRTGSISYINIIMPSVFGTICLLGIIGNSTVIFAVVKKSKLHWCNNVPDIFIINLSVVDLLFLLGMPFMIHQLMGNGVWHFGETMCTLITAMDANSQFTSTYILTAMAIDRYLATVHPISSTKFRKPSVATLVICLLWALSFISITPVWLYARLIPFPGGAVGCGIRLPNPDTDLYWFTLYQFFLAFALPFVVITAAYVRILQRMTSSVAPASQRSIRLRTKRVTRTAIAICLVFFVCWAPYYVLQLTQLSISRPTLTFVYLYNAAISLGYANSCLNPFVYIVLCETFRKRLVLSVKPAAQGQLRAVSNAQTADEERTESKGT
reportedEndpoint: Ki

1. COc1ccc(COc2cnn(CC(=O)c3ccc(CN(C)C)cc3C)c(=O)c2)nc1
14 nM

----------
protocolText: Plasma protein binding in dog
Type: ADME, cell-free, Canis lupus familiaris
settings: read-out: PPB (converted)
reportedEndpoint: fraction unbound

1) COc1ccc(COc2cnn(CC(=O)c3ccc(CN(C)C)cc3C)c(=O)c2)nc1
0.2

----------
protocolText: Half life in rat liver microsomes
Format: ADME
reportedEndpoint: half-life

1. CN(C)Cc1ccc(C(=O)Cn2ncc(OCc3ccc(Cl)cn3)cc2=O)cc1
14 min
2. CN(C)Cc1ccc(C(=O)Cn2ncc(OCc3ccc(Br)cn3)cc2=O)cc1
7 min
3. Cc1cc(CN(C)C)ccc1C(=O)Cn1ncc(OCc2ccccc2)cc1=O
15 min
4. CN(C)Cc1ccc(C(=O)Cn2ccc(OCc3ccc(Cl)cn3)cc2=O)cc1
> 45 min
5. Cc1cc(CN(C)C)ccc1C(=O)Cn1ccc(OCc2ccccc2)cc1=O
24 min
6. CN(C)Cc1ccc(C(=O)Cn2ccc(OCc3ccccc3)cc2=O)cc1
23 min
7. Cc1cc(CN(C)C)ccc1C(=O)Cn1ncc(OCc2ccc(Br)cn2)cc1=O
29 min
8. Cc1cc(CN(C)C)ccc1C(=O)Cn1ccc(OCc2ccc(Cl)cn2)cc1=O
44 min
9. COc1ccc(COc2cnn(CC(=O)c3ccc(CN(C)C)cc3C)c(=O)c2)nc1
> 45 min
10. Cc1cc(CN(C)C)ccc1C(=O)Cn1ncc(OCc2ccc(Cl)cn2)cc1=O
> 45 min
11. CN(C)Cc1ccc(CCn2ccc(OCc3ccccc3)cc2=O)cc1
5 min
12. CN(C)Cc1ccc(C(=O)Cn2ncc(OCc3ccccc3)cc2=O)cc1
6 min
13. Cc1cc(CN(C)C)ccc1C(=O)Cn1ccc(OCc2ccc(Br)cn2)cc1=O
45 min
14. CN(C)Cc1ccc(C(=O)Cn2ccc(OCc3ccc(Br)cn3)cc2=O)cc1
32 min

----------
protocolText: Efflux ratio in human Caco2 cells at 10 uM
Format: ADME, cell-based
settings: Caco-2
reportedEndpoint: efflux ratio at 10 µM

1. COc1ccc(COc2cnn(CC(=O)c3ccc(CN(C)C)cc3C)c(=O)c2)nc1
1

----------
protocolText: Apparent permeability from apical to basolateral side in human Caco2 cells at 10 uM
Assay type: ADME, cell-based
settings: Caco-2
reportedEndpoint: Papp A→B at 10 µM (×10⁻⁶ cm/s)

1) COc1ccc(COc2cnn(CC(=O)c3ccc(CN(C)C)cc3C)c(=O)c2)nc1
52

----------
System: U-937
protocolText: Toxicity in human U937 cells assessed as first effect concentration for phospholipidosis by nile red uptake assay
Assay type: cell-based
Listing of entries alongside the reported Activity.
reportedEndpoint: Activity (µM)

1) Cc1cc(CN(C)C)ccc1C(=O)Cn1ccc(OCc2ccccc2)cc1=O
50
2) CN(C)Cc1ccc(C(=O)Cn2ccc(OCc3ccccc3)cc2=O)cc1
100
3) Cc1cc(CN(C)C)ccc1C(=O)Cn1ncc(OCc2ccccc2)cc1=O
50
4) Cc1cc(CN(C)C)ccc1C(=O)Cn1ccc(OCc2ccc(Br)cn2)cc1=O
50
5) Cc1cc(CN(C)C)ccc1C(=O)Cn1ncc(OCc2ccc(Cl)cn2)cc1=O
50
6) CN(C)Cc1ccc(CCn2ccc(OCc3ccccc3)cc2=O)cc1
100
7) COc1ccc(COc2cnn(CC(=O)c3ccc(CN(C)C)cc3C)c(=O)c2)nc1
200
8) Cc1cc(CN(C)C)ccc1C(=O)Cn1ccc(OCc2ccc(Cl)cn2)cc1=O
50
9) CN(C)Cc1ccc(C(=O)Cn2ncc(OCc3ccc(Cl)cn3)cc2=O)cc1
50
10) Cc1cc(CN(C)C)ccc1C(=O)Cn1ncc(OCc2ccc(Br)cn2)cc1=O
50
